Recorded measurements of pIC50, one per entry
target: xanthine oxidase (Bos taurus, UniProt P80457); experiment: Uric acid formation catalyzed by XO; format: biochemical
Sequence (P80457 whole entry): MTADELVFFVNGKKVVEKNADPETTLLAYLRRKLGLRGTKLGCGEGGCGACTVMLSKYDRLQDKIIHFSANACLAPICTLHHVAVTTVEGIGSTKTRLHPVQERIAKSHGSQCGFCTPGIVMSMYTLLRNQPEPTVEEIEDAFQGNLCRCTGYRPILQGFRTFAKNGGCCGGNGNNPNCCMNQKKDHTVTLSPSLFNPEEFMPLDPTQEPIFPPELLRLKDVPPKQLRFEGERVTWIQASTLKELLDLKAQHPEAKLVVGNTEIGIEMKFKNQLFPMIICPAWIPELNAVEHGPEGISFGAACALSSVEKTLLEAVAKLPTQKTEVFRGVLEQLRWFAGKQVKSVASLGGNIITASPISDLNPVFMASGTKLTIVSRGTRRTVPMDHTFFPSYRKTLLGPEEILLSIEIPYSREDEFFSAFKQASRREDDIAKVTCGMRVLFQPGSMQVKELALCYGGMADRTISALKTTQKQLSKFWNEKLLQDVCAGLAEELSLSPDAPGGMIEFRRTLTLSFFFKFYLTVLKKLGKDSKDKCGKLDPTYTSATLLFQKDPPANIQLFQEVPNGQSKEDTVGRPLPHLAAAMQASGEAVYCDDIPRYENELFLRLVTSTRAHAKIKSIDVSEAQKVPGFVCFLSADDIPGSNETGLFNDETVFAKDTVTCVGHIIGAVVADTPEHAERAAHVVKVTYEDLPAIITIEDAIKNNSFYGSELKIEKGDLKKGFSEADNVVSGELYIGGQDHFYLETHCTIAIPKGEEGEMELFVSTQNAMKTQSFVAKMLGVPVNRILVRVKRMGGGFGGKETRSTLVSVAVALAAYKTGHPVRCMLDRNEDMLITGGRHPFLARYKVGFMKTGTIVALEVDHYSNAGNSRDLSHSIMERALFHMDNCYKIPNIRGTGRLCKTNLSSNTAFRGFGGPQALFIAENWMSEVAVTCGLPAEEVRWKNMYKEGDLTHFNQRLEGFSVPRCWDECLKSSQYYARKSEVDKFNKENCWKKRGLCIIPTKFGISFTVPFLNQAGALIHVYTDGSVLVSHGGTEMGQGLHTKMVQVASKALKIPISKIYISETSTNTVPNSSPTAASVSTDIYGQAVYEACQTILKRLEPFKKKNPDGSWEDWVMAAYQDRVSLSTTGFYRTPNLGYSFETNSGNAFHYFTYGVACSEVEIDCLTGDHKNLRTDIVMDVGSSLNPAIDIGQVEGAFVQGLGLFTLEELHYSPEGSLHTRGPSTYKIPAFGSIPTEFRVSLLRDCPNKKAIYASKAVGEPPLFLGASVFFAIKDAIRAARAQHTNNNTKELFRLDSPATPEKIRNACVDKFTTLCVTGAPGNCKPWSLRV
The scale used: pIC50 is minus the common logarithm of the concentration in molar units.

smiles string	pIC50
Oc1cc(O)cc(/C=C/c2ccc(O)c(O)c2)c1	4.82

Q: Specify pIC50 for Oc1ccc(/C=C/c2cc(O)cc(O)c2)cc1 and stop.
Ans: 4.47

----------
target: xanthine oxidase (Bos taurus); experiment: Uric acid formation catalyzed by XO; assay type: biochemical
readout name: Ki (µM)
Respond with the bare value in µM.

compound	readout name	endpoint result
Oc1cc(O)cc(/C=C/c2ccc(O)c(O)c2)c1 [Piceatannol (6), Piceatannol]	Ki	6.7

Q: State its Ki: Oc1ccc(/C=C/c2cc(O)cc(O)c2)cc1 [Resveratrol (1), Resveratrol]
Ans: 7.7

----------
target: xanthine oxidase (Bos taurus, UniProt P80457); assay: O2- generation catalyzed by XO; type: biochemical
readout name: Ki (µM)
Hi! Could you send only the number? It should be in µM, unit omitted.

These recorded examples may help you get a feel for the data.
compound	Ki / µM
OC[C@H]1O[C@@H](Oc2cc(O)cc(/C=C/c3ccc(O)cc3)c2)[C@H](O)[C@@H](O)[C@@H]1O [Resveratrol-3-glucoside (2), Resveratrol-3-glucoside]	19
Oc1cc(O)cc(/C=C/c2ccc(O)c(O)c2)c1	2.2
Oc1ccc(/C=C/c2cc(O)cc(O)c2)cc1	7.1

Now look at this one.
Q: Respond only with Ki recorded for COc1cc(/C=C/c2ccc(O)cc2)cc(OC)c1
Ans: 43

----------
biological target: xanthine oxidase (Bos taurus, UniProt P80457); assay: O2- generation catalyzed by XO; format: biochemical
IC50 listing for selected compounds.
Could you give me the number in µM? Just the number is fine.

compound	readout name	unit text	endpoint result
OC[C@H]1O[C@@H](Oc2cc(O)cc(/C=C/c3ccc(O)cc3)c2)[C@H](O)[C@@H](O)[C@@H]1O [Resveratrol-3-glucoside (2), Resveratrol-3-glucoside]	IC50	µM	49
COc1cc(/C=C/c2ccc(O)cc2)cc(OC)c1	IC50	µM	124
Oc1ccc(/C=C/c2cc(O)cc(O)c2)cc1	IC50	µM	21

Proceed to the following item.
Q: Recall and state the measured IC50 for Oc1cc(O)cc(/C=C/c2ccc(O)c(O)c2)c1 .
Ans: 4.5

Values were extracted from paper PMC8566757.
